Measured On: human kinase Mps-1 (Homo sapiens, UniProt P33981)
Construct: N-terminally GST-tagged human full length recombinant Mps-1 kinase; GST (N)
Sequence (P33981 1-857): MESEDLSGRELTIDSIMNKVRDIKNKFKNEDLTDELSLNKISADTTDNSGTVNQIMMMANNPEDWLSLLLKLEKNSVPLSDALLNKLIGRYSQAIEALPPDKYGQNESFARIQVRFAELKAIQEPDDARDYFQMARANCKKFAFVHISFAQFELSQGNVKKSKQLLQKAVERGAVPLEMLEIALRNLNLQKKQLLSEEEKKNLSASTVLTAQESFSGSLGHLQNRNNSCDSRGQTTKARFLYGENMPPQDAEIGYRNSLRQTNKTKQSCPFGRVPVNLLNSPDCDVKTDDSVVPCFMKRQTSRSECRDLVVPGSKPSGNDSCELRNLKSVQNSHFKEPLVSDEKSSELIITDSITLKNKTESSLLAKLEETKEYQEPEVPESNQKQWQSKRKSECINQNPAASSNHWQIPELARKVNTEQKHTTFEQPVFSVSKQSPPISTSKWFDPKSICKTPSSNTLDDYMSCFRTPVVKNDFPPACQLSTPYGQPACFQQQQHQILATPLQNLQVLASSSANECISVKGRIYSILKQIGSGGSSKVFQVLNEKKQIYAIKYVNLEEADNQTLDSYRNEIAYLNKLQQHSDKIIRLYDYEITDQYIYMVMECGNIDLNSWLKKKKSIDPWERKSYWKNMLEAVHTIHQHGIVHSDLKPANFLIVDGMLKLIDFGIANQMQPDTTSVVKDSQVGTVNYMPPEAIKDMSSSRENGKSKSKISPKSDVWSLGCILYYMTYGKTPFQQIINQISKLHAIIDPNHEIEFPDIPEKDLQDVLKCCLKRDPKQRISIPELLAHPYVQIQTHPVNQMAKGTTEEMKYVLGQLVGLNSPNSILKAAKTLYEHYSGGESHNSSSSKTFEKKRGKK
Assay Notes: Mps-1 kinase assay (TR-FRET)
Measurement Parameters: N-terminally GST-tagged human full length recombinant Mps-1; 10 μM ATP; 1 μM peptide substrate; 15 min pre-incubation; 60 min at 22° C.
Endpoint Label: IC50 (nM)
Quick reminder: number only, in nM, skip the unit.

Qu. Looking for the measured IC50 of "O=C(NC1CC1)c1ccc(-c2cnc3c(NCc4ccc(Cl)s4)nc(-c4ccccc4)cn23)cc1" , can you help?
Ans. 4.9

Qu. Quick one: IC50 of "O=C(NC1CC1)c1ccc(-c2cnc3c(NCc4ccco4)nc(-c4ccccc4)cn23)cc1" ?
Ans. 3.2

Qu. Could you share which IC50 value was measured for "O=C(NC1CC1)c1ccc(-c2cnc3c(NCCCF)nc(-c4ccccc4)cn23)cc1" ?
Ans. 1.1

Qu. Bench note: what IC50 did "O=C(NC1CC1)c1ccc(-c2cnc3c(NCCCC(F)(F)F)nc(-c4ccccc4)cn23)cc1" show?
Ans. 2.4

Qu. // IC50 lookup, key: "O=C(NC1CC1)c1ccc(-c2cnc3c(NCCCN4CCCC4=O)nc(-c4ccccc4)cn23)cc1"
Ans. 4.8

Qu. Entry "COc1cc(OC)cc(-c2cn3c(-c4ccc(C(=O)NC5CC5)cc4)cnc3c(NCC(C)C)n2)c1" has what IC50?
Ans. 19

Qu. Entry "CC(C)CNc1nc(-c2ccc(C(=O)NC(C)C)cc2)cn2c(-c3ccc(C(=O)NC4CC4)cc3)cnc12" has what IC50?
Ans. 4.2
